ASSAY_OVERVIEW: protein stability index of a GFP-peptide fusion (yeast GPS) (PSI 1-4); higher = more stable; sorted into four equal gates, so the index is relative within each strain
CONDITION_NOTES: pdr5∆
READOUT_TYPE: protein stability index

entry_sequence="DLLPNSFAKLVPCEGKD [SMC2]" data_value=2.73
entry_sequence="KTFEIKEIKTNEYVIKT [YMR129W/POM152]" data_value=2.25
entry_sequence="NPYSSYVSQIRKHKRVS [YAR002W/NUP60]" data_value=1.88
entry_sequence="ISTAKAWGALITTFVKR [YML103C/NUP188]" data_value=2.22
entry_sequence="AQNQGMFGAKPAGTSLF [YGL172W/NUP49]" data_value=2.36
entry_sequence="HKKDRLQYLPLYAVSTF [SIR4]" data_value=1.66
entry_sequence="NKQSVSNLSPDLKFKRH [DSN1]" data_value=2.61
entry_sequence="PKAMTDTDNECVAAWGV [HRT1]" data_value=3.48
entry_sequence="VGRFSTISSADFIQNVG [ECM29]" data_value=2.65
entry_sequence="APPQRPRFNRENKVSPA [RPS26A]" data_value=2.83
entry_sequence="IVALTNAKDKERLQLLE [SMC3]" data_value=3.29
entry_sequence="ITHRDLHYDKDYNLRIY [SSN8]" data_value=2.1
entry_sequence="PTSDEPVPESAGKADTS [SRB4]" data_value=3.07
entry_sequence="NSEISNLPKDKSGIPEF [SSN2]" data_value=3
entry_sequence="SKSKQSFTQGELNDLKW [YMR129W/POM152]" data_value=2.81
entry_sequence="IQELEDQRDELLEQKKS [ITC1]" data_value=3.11
entry_sequence="ASDESLLRYGGAFTIAL [RPN2]" data_value=3.35
entry_sequence="QRTLSKSFYSTATGAAS [CYT1]" data_value=2.39
entry_sequence="NDKLIVDNDNWVYKTKG [RPN1]" data_value=2.77
entry_sequence="DNIDEKVVKAIRIYFTE [NUT1]" data_value=3
entry_sequence="SIRRQDYINELSNSNRF [REC8]" data_value=3.21
entry_sequence="SQYFKFKNDFNSFYYTS [RPN9]" data_value=2.33
entry_sequence="ALGMMTRISSQFEKSRK [RET1]" data_value=1.27
entry_sequence="GVLKPDITFFGEALPNK [SIR2]" data_value=3.19
entry_sequence="VCDLALRFGEGASGEER [PUP2]" data_value=3.4
entry_sequence="EKKGIVQASVTSSTHER [RET1]" data_value=3.1
entry_sequence="LLIATNLKEYNKFMSIF [SRB8]" data_value=1.82
entry_sequence="PPSVTLQDWQREDEFGS [YDL088C/ASM4]" data_value=3.31
entry_sequence="YEIRDIDQDIHGIVFQH [SSN2]" data_value=2.6
entry_sequence="FIRVIGSELVQKYVGEG [RPT1]" data_value=2.57

###

# protein stability index per record follows
ASSAY_OVERVIEW: protein stability index of a GFP-peptide fusion (yeast GPS) (PSI 1-4); higher = more stable; sorted into four equal gates, so the index is relative within each strain
CONDITION_NOTES: doa10∆
READOUT_TYPE: protein stability index

entry_sequence="KLKHMVLDKMHARARGP [RET1]" readout_type="protein stability index" data_value=2.69
entry_sequence="DSENNEENSSSNGNNLP [RGR1]" readout_type="protein stability index" data_value=2.96
entry_sequence="HKKDRLQYLPLYAVSTF [SIR4]" readout_type="protein stability index" data_value=1.59
entry_sequence="NYPQDEINAVFNELCDP [POP1]" readout_type="protein stability index" data_value=2.84
entry_sequence="PGNGKHASENISLSFSR [SIR4]" readout_type="protein stability index" data_value=2.49
entry_sequence="KQRFQGCNNLIKNISNR [ARP9]" readout_type="protein stability index" data_value=2.89
entry_sequence="DIFVYLTYDKDLTNNPQ [MTR3]" readout_type="protein stability index" data_value=2.1
entry_sequence="VTNSPLFQTIEKLINNS [ECM29]" readout_type="protein stability index" data_value=2.73
entry_sequence="TLSLPDSQDYILSINAI [SMC1]" readout_type="protein stability index" data_value=2.85
entry_sequence="IRCHREDCDLVIMALML [POP5]" readout_type="protein stability index" data_value=2.45
entry_sequence="IFSFHQDSIFQRIIADL [SRB8]" readout_type="protein stability index" data_value=2.49
entry_sequence="QQRFQALQQQQQQQQNQ [SWI1]" readout_type="protein stability index" data_value=2.05
entry_sequence="LHPQLHEVQYQESSSTL [SIN4]" readout_type="protein stability index" data_value=2.28
entry_sequence="KQDEKKSSELELQKLVH [SMC2]" readout_type="protein stability index" data_value=3.23
entry_sequence="DLVLGKPLADLRPLFTR [YLR335W/NUP2]" readout_type="protein stability index" data_value=2.97
